# GI50 per entry
# System: HCT-15
# test_description: NCI tumour cell line growth inhibition, 48 h
quantity_kind: GI50

>>> value_reported("CN(C)C(=O)Nc1c([N+](=O)[O-])cc(C(F)(F)F)cc1[N+](=O)[O-]")
"37.1 µM"
>>> value_reported("CC(/C=N/N=C(N)N)=N\\N=C(N)N")
"94 µM"
>>> value_reported("N#C/C(=C\\Nc1ccccn1)C(=O)c1ccco1")
"> 100 µM"
>>> value_reported("COc1cc([C@@H]2C3C(=O)c4ccccc4C3[C@@H](c3cc(OC)c(OC)c(OC)c3)C23Cc2ccccc2C3=O)cc(OC)c1OC (some centres not stated)")
"> 100 µM"
>>> value_reported("Cc1cccc(C2SCc3nc4ccccc4n32)c1 (configuration not stated)")
"18.6 µM"
>>> value_reported("O=C1OCC2(CO1)CC1C=CC2C1 (configuration not stated)")
"> 100 µM"
>>> value_reported("CC(C)N(C(=O)C1(C)CC1)C(C)C")
"> 100 µM"
>>> value_reported("Nc1ccc(COC(O)CN2CCCCC2)cc1[N+](=O)[O-] (configuration not stated)")
"> 100 µM"
>>> value_reported("CN(C)c1nc(NC23CC4CC(CC(C4)C2)C3)nc(N(C)C)n1")
"5.15 µM"
>>> value_reported("NC(=O)NC(=O)C1CCC(=O)N1S(=O)(=O)c1ccc(Cl)cc1 (configuration not stated)")
"> 100 µM"
>>> value_reported("O=NN(CCCl)C(=O)NCc1ccc[n+]([O-])c1")
"> 100 µM"
>>> value_reported("O=C(O)c1ccc2c(c1)CC1(C2)Cc2cc3c(cc2C1=O)CCC3 (configuration not stated)")
"79.6 µM"
>>> value_reported("Cc1cc(C)c(S(=O)(=O)N(CCCN)OCCON(CCCN)S(=O)(=O)c2c(C)cc(C)cc2C)c(C)c1")
"25.7 µM"
>>> value_reported("Cn1c2c(c3ccccc31)C1C(=O)N(c3ccccc3)C(=O)C1CC2 (configuration not stated)")
"> 303 µM"
>>> value_reported("CCN(CC)C(=S)SNc1ccc(S(N)(=O)=O)cc1")
"> 77.4 µM"
>>> value_reported("O=C(O)C1CCc2ccc3ccccc3c2C1c1cccc2ccccc12 (configuration not stated)")
"19.4 µM"
>>> value_reported("N/C(=N\\c1ccc(Cl)cc1)NS(=O)(=O)c1ccc(-c2ncccc2C(F)(F)F)s1")
"16.6 µM"
>>> value_reported("COc1ccc(N[S+]([O-])c2ccccc2OC)cc1 (configuration not stated)")
"5.16 µM"
>>> value_reported("CC(C)(C)OC(=O)N1C(=O)OC[C@@H]2C=C[C@@H]21")
"> 100 µM"
>>> value_reported("CCOC(=O)c1cccn1S(=O)(=O)c1cc(Cl)ccc1NC(=O)CC")
"44 µM"
>>> value_reported("COc1cc(Nc2nc3ccccc3n3cccc23)cc(OC)c1OC")
"> 100 µM"
>>> value_reported("CCC(C)COC(=O)c1ccc(/N=C\\c2ccc(/C=N/c3ccc(C(=O)OCC(C)CC)cc3)cc2)cc1 (configuration not stated)")
"> 100 µM"
